Where do the numbers come from? From ChEMBL document CHEMBL3507680.

- procedure-summary: Human HepG2 cell viability assay in 384 well format
- Type: toxicity, cell-based
- Set-up: dose 125 nL, time 70.5 hour; concentration not given beside the values
- condition-details: HepG2 cells, read-out: Inhibition
readout-kind: cytotoxicity at 70.5 h (%)
Field format: number, assumed %, no unit text.

[[record]]
compound = "CSCC[C@H](NC(C)=O)c1nc(Cc2ccccc2)n[nH]1"
result_number = 6.58

[[record]]
compound = "COCCc1ncc(CN2CCC(Oc3ccccc3C)CC2)cn1"
result_number = -0.184

[[record]]
compound = "CCOc1ccccc1CC(=O)N1C[C@@H](C(=O)O)[C@H](C2CC2)C1"
result_number = -1.88

[[record]]
compound = "CS(=O)(=O)N1CCO[C@@H]2CN(C(=O)N3CCOCC3)CC[C@@H]2C1"
result_number = -6.09

[[record]]
compound = "CSc1ncccc1C(=O)N1C[C@H]2CC[C@@H]1CN(CC(=O)N(C)C)C2"
result_number = 45.6

[[record]]
compound = "Cc1nc2c(c(NCCNC(=O)C(C)C)n1)Cc1ccccc1OC2"
result_number = -6.01

[[record]]
compound = "O=C(Nc1cnccn1)[C@H]1COC[C@H]2CN(C3CCCC3)C[C@H]21"
result_number = -2.04

[[record]]
compound = "O=S(=O)(NCC1CCN(c2cnccn2)CC1)c1c(F)cccc1F"
result_number = -9.72


Could you share which cytotoxicity at 70.5 h value was measured for CN(Cc1ccccc1)c1ncccc1CNC1CCC1 ?
-2.38

Reported cytotoxicity at 70.5 h, compound Cc1cc(CCCC(=O)NC2CCN(C)C2=O)c(C)s1 (stereo unspecified) : ____
-9.64

What measured cytotoxicity at 70.5 h goes with O=C(CN1CSCC1=O)NCC1CCN(c2ccccc2)C1 (stereo unspecified) ?
-8.38

What measured cytotoxicity at 70.5 h goes with CN1CCN(Cc2cn3c(n2)CN(Cc2ccncc2)CC3)CC1 ?
14

Quick one: cytotoxicity at 70.5 h of CC(NCC1CCS(=O)(=O)CC1)c1cccc(OC(F)F)c1 (stereo unspecified) ?
-6.96

---

Measured cytotoxicity at 70.5 h by item
- procedure-summary: Human HepG2 cell viability assay in 384 well format
- Type: toxicity, cell-based
- Parameters: dose 125 nL, time 70.5 hour; concentration not given beside the values
- condition-details: HepG2 cells, read-out: Inhibition
Supply the numeric figure in %, leaving out any unit text.

Past entries and their recorded results:
[[record]]
molecule = "Cc1nc(CN2CCN(c3ccc(Cl)cn3)CC2)no1"
result_number = -6.61

[[record]]
molecule = "CC(C(=O)Nc1cccc(Cl)c1)N1CCN(Cc2ncc[nH]2)CC1 (stereo unspecified)"
result_number = -10.6

[[record]]
molecule = "Cc1noc2ncc(C(=O)NCC3CCN(C(C)C)C3)cc12 (stereo unspecified)"
result_number = -4.09

[[record]]
molecule = "N#Cc1ccc(C(=O)N2CCCSCC2CN2CCCC2)cc1 (stereo unspecified)"
result_number = -5.18

[[record]]
molecule = "c1cc(-c2nn3c(CN4CCOCC4)nnc3s2)ccn1"
result_number = -8.04

[[record]]
molecule = "Cn1ccnc1-c1nc(N2CCCCC2)ncc1-c1ccccc1F"
result_number = -7.17


Can you look up the measured cytotoxicity at 70.5 h of Cc1cccnc1NC(=O)N(CCO)Cc1ccsc1 for me?
-4.42

Which cytotoxicity at 70.5 h is reported for this molecule? O=C(NCC1CC1)C1CN(C(=O)c2ccco2)CC12CCOCC2 (stereo unspecified)
-1.19

---

Consider the following compounds and their measured cytotoxicity at 70.5 h readings.
- procedure-summary: Human HepG2 cell viability assay in 384 well format
- Type: toxicity, cell-based
- Design: dose 125 nL, time 70.5 hour; concentration not given beside the values
- condition-details: HepG2 cells, read-out: Inhibition
Write it as a number; the unit % goes unstated.

Field: example entries. Status: answers known.
[[record]]
compound = "Cc1cc(C)n(CCCNC(=O)[C@@H](C)NC(=O)OC(C)(C)C)n1"
readout_kind = "cytotoxicity at 70.5 h"
result_number = -14.4

[[record]]
compound = "COc1ccc(C(C)NC(=O)N2CCNC(=O)CC2)cc1F (configuration not stated)"
readout_kind = "cytotoxicity at 70.5 h"
result_number = -1.24

[[record]]
compound = "O=C(NC[C@]12COC[C@H]1CN(CC1CCOCC1)C2)c1ccco1"
readout_kind = "cytotoxicity at 70.5 h"
result_number = -3.33

[[record]]
compound = "Cc1cc(C)n(CC2CN(CCC(=O)NC3CCCCC3)CCO2)n1 (configuration not stated)"
readout_kind = "cytotoxicity at 70.5 h"
result_number = -9.5


# input for lookup
Form field: reported cytotoxicity at 70.5 h of CCS(=O)(=O)c1ccccc1N1CCC(NC2CCCC2)CC1
-2.15

---

- procedure-summary: Human HepG2 cell viability assay in 384 well format
- Assay type: toxicity, cell-based
- Design: dose 125 nL, time 70.5 hour; concentration not given beside the values
- condition-details: HepG2 cells, read-out: Inhibition
This section presents molecules with their documented cytotoxicity at 70.5 h values.
Reply with just the number (in %).

[[record]]
molecule = "CN1CCC(N2CCOC[C@H](OCC(=O)N(C)C)C2)CC1"
readout_kind = "cytotoxicity at 70.5 h"
readout_unit = "%"
result_number = 0.483

[[record]]
molecule = "N#Cc1ccc(C2CC(=O)Nc3c2cnn3C2CCCC2)cc1 (stereo unspecified)"
readout_kind = "cytotoxicity at 70.5 h"
readout_unit = "%"
result_number = -2.74

[[record]]
molecule = "c1c[nH]c(CN2CCC3(CC2)COCCN(CCN2CCCC2)C3)c1"
readout_kind = "cytotoxicity at 70.5 h"
readout_unit = "%"
result_number = -10.3

[[record]]
molecule = "CC(C)[C@H]1COC(=O)N1Cc1nncn1C(C)C"
readout_kind = "cytotoxicity at 70.5 h"
readout_unit = "%"
result_number = -7.29

[[record]]
molecule = "Cc1ccn(-c2ccnc(N3CCN(c4ncccn4)CC3)n2)n1"
readout_kind = "cytotoxicity at 70.5 h"
readout_unit = "%"
result_number = -9.69

[[record]]
molecule = "c1cn(-c2nccnc2C2CCCN(C3CCOCC3)C2)cn1 (stereo unspecified)"
readout_kind = "cytotoxicity at 70.5 h"
readout_unit = "%"
result_number = -5.56


For CSc1[nH]nc(NC(=O)c2ccncc2)c1C#N , what is its reported cytotoxicity at 70.5 h?
-1.59

cytotoxicity at 70.5 h for O=C(c1ccco1)N1Cc2nccn2CC(Cn2ncccc2=O)C1 (stereo unspecified) ?
-6.66

Reported cytotoxicity at 70.5 h for O=c1n(CCSCc2ccccc2F)nc2ccccn12 : what is it?
-11.3

Query (molecule): N#Cc1ccc(CN2CCN(C(=O)c3cc(C4CC4)[nH]n3)CC2)cc1 ; field requested: cytotoxicity at 70.5 h
0.0729

---

- procedure-summary: Human HepG2 cell viability assay in 384 well format
- Assay type: toxicity, cell-based
- Set-up: dose 125 nL, time 70.5 hour; concentration not given beside the values
- condition-details: HepG2 cells, read-out: Inhibition
Below: a set of entries, each annotated with reported cytotoxicity at 70.5 h.
State the answer as a number, implicitly in %.

[[record]]
molecule = "CCn1nc(C)cc1C(=O)OCCNC(=O)c1ccccc1"
readout_unit = "%"
result_number = -0.786

[[record]]
molecule = "Cc1noc(C2CCN(C(=O)c3ccc(NC4CC4)nc3)CC2)n1"
readout_unit = "%"
result_number = -10.2


cytotoxicity at 70.5 h for COc1ccc(CNC(=O)NCC(=O)NC2CC2)c(C(F)(F)F)c1 ?
21.2

Using the record for CCn1c(CC2CCN(C(=O)c3ccnn3C)CC2)n[nH]c1=O , report its cytotoxicity at 70.5 h.
-6.64

---

The entries below are paired with their reported cytotoxicity at 70.5 h.
- procedure-summary: Human HepG2 cell viability assay in 384 well format
- Format: toxicity, cell-based
- Parameters: dose 125 nL, time 70.5 hour; concentration not given beside the values
- condition-details: HepG2 cells, read-out: Inhibition
Return type: number; implicit unit %.

Worked examples follow.
[[record]]
compound = "Cc1nc(C2CCNCC2)cc(N2CCOc3ccccc3C2)n1"
result_number = -4.26

[[record]]
compound = "CC[C@H]1CN(C(=O)CCn2c(C)cccc2=O)CC[C@@]1(C)O"
result_number = -4.82

[[record]]
compound = "c1cnc(N2CCN(Cn3nccc3-c3cccnc3)CC2)nc1"
result_number = 5.37

[[record]]
compound = "O=C(c1cnc2[nH]c(=O)[nH]c(=O)c2c1)N1CCCC1C1CCCCC1 (stereo not drawn)"
result_number = -5.02

[[record]]
compound = "CC(O)c1cn(C2CCN(C(=O)C3(C)CCCCC3)CC2)nn1 (stereo not drawn)"
result_number = 14.9


Reported cytotoxicity at 70.5 h, compound CCn1cc(CN2CCC(N3CCC(O)CC3)CC2)cc1C#N : ____
-5.22

# query: cytotoxicity at 70.5 h of entry CCN(C)C[C@@H]1CN(Cc2cccc(Cl)c2)C[C@@H]1CO
-11.5

May I ask what cytotoxicity at 70.5 h has been recorded for c1ccc2sc(N3CCCC(Cn4cncn4)C3)nc2c1 (stereo not drawn) ?
-6.17

What value of cytotoxicity at 70.5 h has been reported for the following compound? CC[C@@H](c1ccccc1)n1c(CN)n[nH]c1=O
-13.5

Given O=C1COC2(CCN(Cc3ccoc3)CC2)CN1CCn1cccn1 , state its recorded cytotoxicity at 70.5 h.
-2.81
